read-out: ABC Transporter (ABCB1), ABCB1 (gene 5243); experiment: LTEA_HepaRG_ABCB1: Life Technologies and Expression Analysis (LTEA) Assay for ABC Transporter (ABCB1) using HepaRG (AID 2283460); conditions: mRNA level, 48 h; actives raise or lower the signal
Calls of active or inactive are those of the source. How the source made its calls: active means hit-call score of the fitted dose curve at least 0.9, where 1 is the maximum; inactive means score below 0.9.
Classes to choose from: active, inactive

Some entries whose results are on file:
CN(C)NC(=O)CCC(=O)O
inactive
CC(C1CC1)C(O)(Cn1cncn1)c1ccc(Cl)cc1 (centres undefined)
active
CCOP(=O)(NC(C)C)Oc1ccc(SC)c(C)c1 (centres undefined)
inactive
CCC(=O)Nc1ccc(Cl)c(Cl)c1
inactive

What classification did `C#CC(C)(C)NC(=O)c1cc(Cl)cc(Cl)c1` end up with in this test?
active

And `CNC(=O)Oc1cccc2c1OC(C)(C)O2` ?
inactive

And `COP(=O)(OC)SCn1c(=O)oc2cc(Cl)cnc21` ?
inactive

And COP(=O)(NC(C)=O)SC (centres undefined) ?
inactive

And `CCc1cccc(CC)c1N(COC)C(=O)CCl` ?
inactive

====

test: ATG_SREBP_CIS: Attagene CIS-FACTORIAL HepG2 Assay for human Sterol Regulatory Element Binding (SREBP) (AID 2282962); conditions: HepG2 Attagene cis-factorial SREBP reporter, mRNA; actives raise or lower the signal
The source made the active and inactive calls. How the source made its calls: active means hit-call score of the fitted dose curve at least 0.9, where 1 is the maximum; inactive means score below 0.9.
Classes to choose from: active, inactive

Some entries whose results are on file:
COc1ccc(C(=CC(=O)N2CCOCC2)c2ccc(Cl)cc2)cc1OC
inactive
FC(F)C(F)(F)OCC(Cn1cncn1)c1ccc(Cl)cc1Cl (stereo unspecified)
active
Cc1ccn2nc(S(=O)(=O)Nc3c(F)cccc3F)nc2n1
inactive
C#CC(C)(C)NC(=O)c1cc(Cl)cc(Cl)c1
active
CC(C)[C@H](C(=O)O[C@H](C#N)c1cccc(Oc2ccccc2)c1)c1ccc(Cl)cc1
inactive

What classification did CCOP(=O)(NC(C)C)Oc1ccc(SC)c(C)c1 (stereo unspecified) end up with in this test?
active

====

experiment: APR_HepG2_MitoticArrest_1hr: Apredica 1-hour HepG2 Assay for Mitotic Arrest (AID 2282672); details: high-content imaging, actives raise or lower the signal
Active and inactive are the calls of the source. How the source made its calls: active means hit-call score of the fitted dose curve at least 0.9, where 1 is the maximum; inactive means score below 0.9.
test-readout: outcome

O=c1ccc(=O)[nH][nH]1
inactive
CSC1=N[C@@](C)(c2ccccc2)C(=O)N1Nc1ccccc1
inactive
CCOP(=O)(NC(C)C)Oc1ccc(SC)c(C)c1 (stereo not drawn)
inactive

====

biological target: rat Monoamine Oxidase, MAO-B, Peripheral (MAOBP), Maob (gene 25750) (UniProt P19643); test: NVS_ENZ_rMAOBP: NovaScreen (NVS) Enzymatic Assay for rat Monoamine Oxidase, MAO-B, Peripheral (MAOBP) (AID 2283242)
Sequence (P19643 whole entry, looked up): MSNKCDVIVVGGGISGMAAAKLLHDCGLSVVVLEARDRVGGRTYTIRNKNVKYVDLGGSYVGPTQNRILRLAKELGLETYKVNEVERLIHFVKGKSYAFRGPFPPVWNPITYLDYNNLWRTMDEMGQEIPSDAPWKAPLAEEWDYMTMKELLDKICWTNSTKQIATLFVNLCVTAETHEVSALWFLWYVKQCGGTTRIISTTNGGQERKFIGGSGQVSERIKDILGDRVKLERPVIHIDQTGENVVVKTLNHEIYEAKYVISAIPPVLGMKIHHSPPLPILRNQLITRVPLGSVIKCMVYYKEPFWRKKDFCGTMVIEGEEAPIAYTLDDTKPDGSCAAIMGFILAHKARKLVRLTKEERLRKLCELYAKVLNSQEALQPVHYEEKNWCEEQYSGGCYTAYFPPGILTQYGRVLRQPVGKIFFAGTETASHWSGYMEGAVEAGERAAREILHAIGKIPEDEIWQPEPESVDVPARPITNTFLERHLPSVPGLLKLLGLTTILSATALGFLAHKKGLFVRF
Records with an inconclusive call do not appear. Activity calls are given as the source filed them. How the source made its calls: active means hit-call score of the fitted dose curve at least 0.9, where 1 is the maximum; inconclusive means response in the unintended direction; inactive means score below 0.9.
Classes to choose from: class 1 = active, class 0 = inactive

S=C1NCCN1
class 0
CC(C1CC1)C(O)(Cn1cncn1)c1ccc(Cl)cc1 (stereo not given)
class 0
Nc1c(Cl)cc([N+](=O)[O-])cc1Cl
class 1
CSc1nnc(C(C)(C)C)c(=O)n1N
class 0

What classification did `CCC(=O)Nc1ccc(Cl)c(Cl)c1` end up with in this test?
class 1

====

read-out: TIMP metallopeptidase inhibitor 1 (TIMP1), TIMP1 (gene 7076); assay: BSK_hDFCGF_TIMP1: BioMAP Diversity Plus: hDFCGF Assay for TIMP metallopeptidase inhibitor 1 (TIMP1) Biomarker Activity (AID 2283062); details: primary human foreskin fibroblasts; actives raise or lower the signal
Activity calls are given as the source filed them. Rule for the calls: active = hit-call score of the fitted dose curve at least 0.9, where 1 is the maximum; inactive = score below 0.9.
Classes to choose from: Yes (active), No (inactive)

C[N+]1(C)CCCCC1
No
CC1=NNC(=O)N(/N=C/c2cccnc2)C1
No
CON=C(C(=O)OC)c1ccccc1CON=C(C)c1cccc(C(F)(F)F)c1
Yes

What classification did `N#CSCSC#N` end up with in this test?
No

And `CNC(=O)Oc1cccc2c1OC(C)(C)O2` ?
No
